Property: cell viability; scope: individual compounds
system: SEM cells; test: cell viability relative to DMSO control; higher = less cytotoxic; conditions: RPMI 5 mM glucose + 10% FBS; 48 h; 0.0632 µM
Your answer should be a plain number; it is taken to be in %.

[ask] Look up and report measured cell viability for this entry: `c1cc(-c2sc(-c3ccncc3)c(-c3ccncc3)c2-c2ccncc2)ccn1`
[reply] 106

[ask] Please give measured cell viability of the following entry: `CC(C)[C@@H](N(CCCN)C(=O)C1=CC=C(C)C=C1)C/2=C(\CC3=CC=CC=C3)C(=O)C4=C(O2)C=C(Cl)C=C4`
[reply] 20

[ask] Identify the reported cell viability for the following entry. `CCCCOc1ccc(C(=O)Nc2ccc(F)cc2F)cc1`
[reply] 83.4

[ask] # return recorded cell viability for input `CN(C)c1nc(N(C)C)nc(N(C)C)n1`
[reply] 107

[ask] Give cell viability for `CO[C@@H]1[C@H](N(C)C(=O)c2ccccc2)C[C@H]2O[C@]1(C)n1c3ccccc3c3c4c(c5c6ccccc6n2c5c31)C(=O)NC4`
[reply] 105

[ask] Please give measured cell viability of the following entry: `CC(C)(C)C1=NC2=C([NH]1)C3=CC=C(F)C=C3C4=C2\C=C/NC4=O`
[reply] 126

[ask] State, in one line, measured cell viability of C[C@H]1CCC/C=C/C2C[C@H](O)C[C@H]2[C@H](O)/C=C/C(=O)O1 (some centres not stated)
[reply] 5.67

Origin of measurements: the supplement of paper PMC11451515
